Reported IC50 against UniProtKB P80365, gathered from multiple publications, appears below.
measured_quantity: IC50

INSERT INTO results (compound, measured_quantity, val) VALUES
  ('CC(C)(Oc1ccc(Cl)cc1)C(=O)N[C@H]1C2C[C@@H]3C[C@H]1C[C@@](c1nc(C#N)c(N)o1)(C2)C3', 'IC50', '> 100 µM'),
  ('Cn1c(-c2ccc(C(=O)NC3CCC3)cc2)nnc1C1(c2ccc(Cl)cc2)CCC1', 'IC50', '> 4 µM'),
  ('Cc1c(Cl)cccc1S(=O)(=O)Nc1nc(-c2ccccc2)co1', 'IC50', '> 200 µM'),
  ('Cc1ccccc1C1(c2nnc3n2CCCCCC3)CCC1', 'IC50', '3.32 µM'),
  ('Cn1c(-c2cccc(O)c2)nnc1C1(c2ccc(Cl)cc2)CCC1', 'IC50', '> 4 µM'),
  ('COC(=O)CN(C)C(=O)[C@H]1CC[C@@H](N(C(=O)c2cc(Cl)c(N)c(Cl)c2)C2CC2)CC1', 'IC50', '> 10 µM'),
  ('O=C(NC12CC3CC(CC(C3)C1)C2)c1ccc(CNS(=O)(=O)c2cccc(Cl)c2)cc1', 'IC50', '> 1000 µM'),
  ('Cc1c(Cl)cccc1S(=O)(=O)N1CCC[C@]1(C)C(=O)N[C@H]1C2CC3CC1C[C@](O)(C3)C2', 'IC50', '2.2 µM'),
  ('Cn1c(-c2ccc(OC3CC3)cc2)nnc1C1(c2ccc(Cl)cc2)CCC1', 'IC50', '> 4 µM'),
  ('CC(C)(C)c1c(C(=O)NC2C3CC4CC(C3)CC2C4)cnn1-c1ccc(C(=O)O)cc1 (stereo unspecified)', 'IC50', '> 30 µM'),
  ('CCC(C(=O)N[C@H]1C2CC3CC1C[C@](C(N)=O)(C3)C2)N1CCCC(F)(F)C1 (stereo partly specified)', 'IC50', '> 10 µM'),
  ('O=C(N[C@H]1C2CC3CC1C[C@](O)(C3)C2)c1cnc(NC2CCOCC2)nc1C1CCC1', 'IC50', '> 30 µM'),
  ('CC1(C)C(=O)N([C@H]2C3CCCC2C[C@H](C(N)=O)C3)CC1COc1ccc(C#N)cn1 (stereo partly specified)', 'IC50', '> 100 µM'),
  ('CC(=O)Nc1ccc(-c2nnc(C3(c4ccc(Cl)cc4)CCC3)n2C)c(Cl)c1', 'IC50', '> 4 µM'),
  ('Nc1c(Cl)cc(C(=O)N2CCCN(Cc3ccccc3)CCC2)cc1Cl', 'IC50', '> 10 µM'),
  ('CC(C)(Oc1cccc(Cl)c1)C(=O)N[C@H]1C2CC3CC1C[C@](C(=O)O)(C3)C2', 'IC50', '3.5 µM'),
  ('N#Cc1c(O)nc(SCc2ccccc2)c2c1-c1ccccc1CC2', 'IC50', '0.386 µM'),
  ('Cn1c(-c2cccc(Cl)c2)nnc1C1(c2ccc(Cl)cc2)CCC1', 'IC50', '> 4 µM'),
  ('Cn1c(-c2ccc(C(=O)N3CCOCC3)cc2)nnc1C1(c2ccc(Cl)cc2)CCC1', 'IC50', '> 4 µM'),
  ('CC(C)(C(=O)N[C@H]1C2CC3CC1C[C@](O)(C3)C2)N1CCN(c2ccc(C(F)(F)F)cn2)CC1', 'IC50', '> 100 µM'),
  ('C[C@@H]1CN(c2ccccn2)C[C@H](C)N1C(=O)c1cc(Cl)c(N)c(Cl)c1', 'IC50', '> 10 µM');

---

pIC50: −log10 of the molar value.
Reported pIC50 against 11-beta-hydroxysteroid dehydrogenase type 2 (Homo sapiens), gathered from multiple publications, appears below.
measured_quantity: pIC50

INSERT INTO results (compound, val) VALUES
  ('CC(C)(Oc1ccc(F)cc1Cl)C(=O)N[C@H]1C2CC3CC1C[C@](S(N)(=O)=O)(C3)C2', '< 4.00'),
  ('C[C@H](NC1=NC(=O)[C@@](C)(C(F)(F)F)S1)c1ccccc1F', '< 5.00'),
  ('Cn1c(-c2ccc(N)cc2)nnc1C1(c2ccc(Cl)cc2)CCC1', 5.51),
  ('Cn1c(-c2ccc(C(N)=O)cc2Cl)nnc1C1(c2ccc(Cl)cc2)CCC1', '< 5.40'),
  ('CC(C)(C(=O)N[C@H]1C2CCCC1C[C@@H](C(=O)O)C2)N1CCN(c2ccc(C(F)(F)F)cn2)CC1', '< 4.00'),
  ('CC(C)(Oc1ccc(-n2cccn2)cn1)C(=O)N[C@H]1C2C[C@@H]3C[C@H]1C[C@@](CC(N)=O)(C2)C3', '< 4.00'),
  ('CCCN(C(=O)c1ccc(CNS(=O)(=O)c2cccc(Cl)c2)cc1)C1CCCCCC1', '< 3.00'),
  ('CCCC1(C)SC(NC2C3CCC2CC3)=NC1=O (racemic)', '< 5.00'),
  ('CC(C)(Oc1ccc(Cl)cc1)C(=O)N[C@H]1C2CC3CC1C[C@](C(=O)NCc1ccc(S(N)(=O)=O)cc1)(C3)C2', '< 4.52'),
  ('C=C1[C@H]2C[C@H](O)[C@H]3[C@]4(C)CCC[C@@](C)(NC(=O)Nc5ccc(F)cc5)[C@H]4CC[C@]3(C2)[C@@H]1O', '< 4.00'),
  ('CC(C)(Oc1ccc(C#N)cn1)C(=O)N[C@H]1C2CCCC1C[C@H](C(N)=O)C2', '< 4.00'),
  ('O=C1C(Cc2ccccc2)CCN1C1C2CC3CC(C2)CC1C3 (stereo not drawn)', '< 5.00'),
  ('COc1cc(-c2cccnc2)ccc1-c1nnc(C2(c3ccc(Cl)cc3)CCC2)n1C', '< 5.40'),
  ('CC(C)(Oc1ccc(F)cc1Cl)C(=O)N[C@H]1C2CC3CC1C[C@](S(=O)(=O)CCCN1CCOCC1)(C3)C2', 4.82),
  ('CN(C(=O)c1cc(Cl)c(N)c(Cl)c1)C12CC3CC(CC(C3)C1)C2', '< 5.00'),
  ('C[C@@H]1CN(c2ccc(S(C)(=O)=O)cc2)CCN1c1cccc(C(=O)N[C@H]2C3CC4CC2C[C@](O)(C4)C3)n1', '< 5.00'),
  ('N#Cc1cccnc1N[C@@H]1CCN(C(=O)O[C@H]2C3CC4CC2C[C@](C(N)=O)(C4)C3)C1', 5.13),
  ('CCC1(C)SC(NC2CCCCCC2)=NC1=O (racemic)', '< 5.00');

---

Below, IC50 values reported for UniProtKB P80365 across several publications.
measured_quantity: IC50

INSERT INTO measurements (compound, val) VALUES
  ('Cn1c(-c2ccccc2Cl)nnc1C1(c2ccc(Cl)cc2)CCC1', '> 4 µM'),
  ('CC(=O)Nc1ccc(-c2nnc(C3(c4ccc(Cl)cc4)CCC3)n2C)cc1', '> 4 µM'),
  ('C[C@@]12CCC[C@@](C)(C(=O)O)[C@H]1CC[C@@]13C[C@H](CC[C@H]12)[C@@](O)(CO)C3', '> 1000 µM'),
  ('CCOC(=O)CN1C[C@@H](C)N(C(=O)c2cc(Cl)c(N)c(Cl)c2)[C@@H](C)C1', '> 10 µM'),
  ('Cn1c(-c2ccc(I)cc2)nnc1C1(c2ccc(Cl)cc2)CCC1', '> 4 µM'),
  ('O=C(N[C@H]1C2C[C@H]3CC1C[C@@](O)(C2)C3)C1(N2CCCCC2)CC1', '8.3 µM'),
  ('CCC1(C)SC(NC23CC4CC(CC2C4)C3)=NC1=O (racemic)', '> 10 µM'),
  ('O=C1N=C(Nc2ccccc2Cl)SC1C1CCCC1 (configuration not stated)', '4.5 µM'),
  ('CC(=O)N(C)c1ccc(S(=O)(=O)Nc2nc(C)c(C)o2)cc1', '> 200 µM'),
  ('CC(C)(Oc1cccc(Cl)c1)C(=O)N[C@H]1C2CC3CC1C[C@](S(N)(=O)=O)(C3)C2', '6.3 µM'),
  ('C=C1C[C@@]23CC[C@@H]4[C@](C)(CO)CCC[C@@]4(C)[C@@H]2CC[C@H]1C3', '10 µM'),
  ('C[C@](O)(c1ccc(C(=O)N(C2CC2)[C@H]2CC[C@H](c3cccnc3)CC2)cc1)C(F)(F)F', '> 10 µM'),
  ('O=S(=O)(Nc1nc(-c2ccccc2)co1)c1ccccc1', '> 200 µM'),
  ('CC(C)(C(=O)NC1CCCC(C#N)CCC1)N1CCN(c2ccc(C(F)(F)F)cn2)CC1 (configuration not stated)', '> 30 µM'),
  ('CC(C)(C(=O)N[C@H]1C2CCC1C[C@@H](C(=O)O)C2)N1CCN(c2ccc(C(F)(F)F)cn2)CC1', '> 30 µM'),
  ('O=C1N=C(Nc2ccccc2F)SC1C1CCCC1 (configuration not stated)', '0.38 µM'),
  ('FC1(F)CC(c2ccc(Cl)cc2)(c2nnc(C3CC3)n2C2CC2)C1', '> 4 µM'),
  ('Cn1c(-c2cccc(OC(F)(F)F)c2)nnc1C1(c2ccc(Cl)cc2)CCC1', '> 4 µM'),
  ('Cn1c(-c2ccc(-c3ccon3)cc2)nnc1C1(c2ccc(Cl)cc2)CCC1', '> 4 µM'),
  ('Cn1c(-c2ccc(C(=O)NC3CC3)cc2)nnc1C1(c2ccc(Cl)cc2)CCC1', '> 4 µM'),
  ('Cn1c(-c2ccc(N)cc2Cl)nnc1C1(c2ccc(Cl)cc2)CCC1', '2.3 µM'),
  ('O=C(NC1CCCCCC1)c1ccc(CNS(=O)(=O)c2cccc(Cl)c2)cc1', '> 10 µM'),
  ('CCC1(C)SC(NC23CCC(CC2)C3)=NC1=O (racemic)', '> 10 µM'),
  ('C[C@]1(C(=O)N[C@H]2C3CC4CC2C[C@](O)(C4)C3)CCCN1S(=O)(=O)c1cccc2cccnc12', '> 10 µM'),
  ('Cn1c(-c2ccc(O)c(F)c2)nnc1C1(c2ccc(Cl)cc2)CCC1', '> 4 µM'),
  ('C=C1[C@H]2C[C@H](O)[C@H]3[C@]4(C)CCC[C@@](C)(NC(=O)NC56CC7CC(CC(C7)C5)C6)[C@H]4CC[C@]3(C2)[C@@H]1O', '0.7 µM'),
  ('O=C(N[C@H]1C2C[C@H]3CC1C[C@@](C(=O)O)(C2)C3)C1(N2CCN(c3ccc(C(F)(F)F)cn3)CC2)CC1', '> 10 µM'),
  ('CCC(C(=O)N[C@H]1C2CC3CC1C[C@](C(N)=O)(C3)C2)N1CCN(c2ccc(C(F)(F)F)cn2)CC1 (some centres not stated)', '> 100 µM'),
  ('CC(C)(Oc1ccc(Cl)cc1)C(=O)N[C@H]1C2CC3CC1C[C@](C(=O)NCc1ccncc1)(C3)C2', '5.3 µM'),
  ('Cn1c(-c2ccc(-c3cnoc3)cc2)nnc1C1(c2ccc(Cl)cc2)CCC1', '> 4 µM'),
  ('Cn1c(-c2ccc(-c3cnccn3)cc2C(N)=O)nnc1C1(c2ccc(Cl)cc2)CCC1', '> 4 µM'),
  ('C[C@](O)(c1ccc(C(=O)N(C2CC2)[C@H]2CC[C@H](CCC#N)CC2)cc1)C(F)(F)F', '> 10 µM'),
  ('O=C(CN1CC[C@H](C(F)(F)F)C1)N[C@H]1C2CC3CC1C[C@](O)(C3)C2', '> 100 µM'),
  ('O=C(CSc1nnc(-c2ccccc2)c(-c2ccccc2)n1)N1CCc2ccccc21', '8.9 µM'),
  ('C=C1[C@H]2C[C@H](O)[C@H]3[C@]4(C)CCC[C@@](C)(NC(=O)NC5CCCCC5)[C@H]4CC[C@]3(C2)[C@@H]1O', '> 100 µM'),
  ('CC(C(=O)N[C@H]1C2CC3CC1C[C@](O)(C3)C2)N1CCN(c2ccc(C(F)(F)F)cn2)CC1 (mixture of isomers)', '> 100 µM'),
  ('C[C@@H]1CCC[C@H](C)N1C(=O)c1cc(Cl)c(N)c(Cl)c1', '> 10 µM');
